Target: T1, human CLDN-18.2 (human, UniProt P56856-2 1-261)
T1 construct: whole, on cells
Assay: flow cytometry on NUGC4-CLDN-18.2 cells, 4 C 30 min, fluorescent secondary antibody
Observable: EC50
# output: numeric value plus its unit

input: Entry under review: anti-CLDN-18.2 chimeric antibody Chi-JS012-2 (antibody, V domains shown, Fused to a human heavy chain constant region and a human kappa constant region cloned from human blood cells) VH: DVQLVESGGGLVQPGGSRKLSCAASGFTLNNFGMHWVRQAPEKGLEWVACISSGSGTIYYADTVKGRFTISRDNPKNTLFLQMTSLRSEDTAMYYCARAYYGNGFSFWGQGTLVTVSS VL: DIVMTQSPSSLTVTAGEKVTMSCKSSQSLLNSGNQKNYLTWYQQKPGQPPKLLIYWASTRESGVPDRFTGSGSGTDFTLTISSVQAEDLAIYYCQNVYSYPLTFGAGTKLEIK . Reported EC50?
output: 4.02 µg/mL
